tested on: PIM1; conditions: concentration: 1 μM, replicates: in singlicate; n = 1;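 further: KINOMEscan kinase panel screen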
measure: %Inh

>>> experimental_value("CSc1ccc(-c2cc3ncnc(SCC(=O)O)c3s2)cc1")
"0%"
>>> experimental_value("CC(C)Oc1ccc2c(-c3ccnc(Nc4ccc(N5CCN(C)CC5)cc4)n3)cnn2n1")
"37%"
>>> experimental_value("CN1c2ccc(CNc3ccc(F)cc3)cc2-c2c(cnn2C)S1(=O)=O")
"0%"
>>> experimental_value("COc1ccc(CNC(=O)NC2CCN(c3ccnc(Nc4ccc(OC)cc4)n3)C2)cc1 (stereo not drawn)")
"0%"
>>> experimental_value("Cc1cccc(-c2nc(Nc3ccc4ncsc4c3)c3ccccc3n2)n1")
"9%"
>>> experimental_value("O=C(NCCNc1ccnc(Nc2ccc(F)cc2)n1)Nc1ccccc1F")
"0%"
>>> experimental_value("NS(=O)(=O)CCc1cccc(Nc2nccc(-c3c(-c4cccc(NC(=O)c5c(F)cccc5F)c4)nn4ccccc34)n2)c1")
"0%"
>>> experimental_value("Fc1ccc(-c2nn3c(OCC(F)(F)F)cccc3c2-c2ccncc2)cc1")
"0%"
>>> experimental_value("Cc1ccc(NC(=O)c2ccnc(N3CCN(C)CC3)c2)cc1-c1ccc(C(=O)NCC2CC2)cc1")
"0%"

----------
// reported %Inh per item
system: MST1; construct: gene STK4; details: concentration: 1 μM, replicates: in singlicate; n = 1
measure: %Inh (%)

>>> experimental_value("CCc1ccnc(/C=C/c2n[nH]c3cc(Sc4ccccc4C(=O)NC)ccc23)c1")
6
>>> experimental_value("CSc1ccc(-c2cc3ncnc(SCC(=O)O)c3s2)cc1")
13
>>> experimental_value("COCCNC(=O)c1ccc(-c2cc(C(=O)NC3CC3)cc(F)c2C)cc1 [GW868318]")
17
>>> experimental_value("Cc1c(Cn2c(C)nn3c(=O)cc(N4CCOC(C)C4)nc23)cccc1C(F)(F)F (stereo not drawn) [GSK2344444]")
0
>>> experimental_value("O=C(Nc1cccc(-c2nn3ncccc3c2-c2ccnc(Nc3cccc(C(F)(F)F)c3)n2)c1)c1c(F)cccc1F [GSK299495]")
9
>>> experimental_value("CCn1cnc2c(N)ncnc21 [GW345098]")
8
>>> experimental_value("COc1cc2c(cc1OC[C@@H](O)CO)ncc1c3ccc(C#N)cc3[nH]c21")
0
>>> experimental_value("O=C1NC(=O)C(N2CCc3ccccc32)=C1c1cccc(Cl)c1 [SB-408010]")
0
>>> experimental_value("O=C(NCCNc1ccnc(Nc2ccc(F)cc2)n1)Nc1ccccc1F [GSK1379880]")
0

----------
tested on: EPHB6; details: concentration: 1 μM, replicates: in singlicate; n = 1
measure: %Inh (%)

>>> experimental_value("CSc1ccc(-c2cc3ncnc(SCC(=O)O)c3s2)cc1")
33
>>> experimental_value("O=C(NOCC1CC1)c1ccc(F)c(F)c1Nc1ccc(I)cc1Cl")
0
>>> experimental_value("Cc1c(Cn2c(C)nn3c(=O)cc(N4CCOC(C)C4)nc23)cccc1C(F)(F)F (stereo not shown) [GSK2344444]")
0
>>> experimental_value("COCCNC(=O)c1ccc(-c2cc(C(=O)NC3CC3)cc(F)c2C)cc1 [GW868318]")
23
>>> experimental_value("Cc1ccc(NC(=O)c2ccnc(N3CCN(C)CC3)c2)cc1-c1ccc(C(=O)NCC2CC2)cc1 [GW775604]")
0
>>> experimental_value("Nc1nccc(-c2c(-c3ccc(F)cc3)ncn2C2CCN(CC(F)(F)F)CC2)n1 [SB-236560]")
44
>>> experimental_value("NS(=O)(=O)c1cccc(-c2ccc3ncc(N4CCOCC4)nc3c2)c1 [GSK1535721]")
25
>>> experimental_value("COc1ccc(Nc2nccc(N3CCC(NC(=O)Nc4cccc(C(C)=O)c4)C3)n2)cc1 (stereo not shown) [GSK1379731]")
0
>>> experimental_value("COc1ccc(COc2cc(-n3cnc4ccccc43)sc2C(N)=O)cc1 [GSK1024304]")
0
>>> experimental_value("c1ccc(-c2cc(-c3c[nH]nc3-c3ccccn3)ccn2)cc1 [GW576604]")
0

----------
test system: RSK3(Kin.Dom.1-N-terminal); construct: gene RPS6KA2; conditions: concentration: 1 μM, replicates: in singlicate; n = 1
// reported %Inh per item
measure: %Inh (%)

>>> experimental_value("Cc1nnc(-c2ccc3ncc(-c4ccc(S(C)=O)cc4)n3c2)o1 (stereo not drawn)")
0
>>> experimental_value("O=C1Cc2cc(Nc3nc(NCc4cccc(S(=O)(=O)C(F)(F)F)c4)ncc3C(F)(F)F)ccc2N1")
8
>>> experimental_value("O=C(NCCNc1ccnc(Nc2ccc(F)cc2)n1)Nc1ccccc1F")
0

----------
tested on: DCAMKL2; construct: gene DCLK2; details: concentration: 1 μM, replicates: in singlicate; n = 1
measure: %Inh (%)

>>> experimental_value("NS(=O)(=O)CCc1cccc(Nc2nccc(-c3c(-c4cccc(NC(=O)c5c(F)cccc5F)c4)nn4ccccc34)n2)c1")
23
>>> experimental_value("Cc1nnc(-c2ccc3occ(-c4ccc(C(C)O)cc4)c3c2)o1 (stereo not drawn)")
12
>>> experimental_value("COc1ccc(COc2cc(-n3cnc4ccccc43)sc2C(N)=O)cc1")
8
>>> experimental_value("Fc1ccc(-c2nn3c(OCC(F)(F)F)cccc3c2-c2ccncc2)cc1")
0
>>> experimental_value("Nc1nc(-c2ccc3c(N)n[nH]c3c2)cc(N2CCCC2)n1")
0
>>> experimental_value("CC(=O)Nc1ccc(COc2ccc(Nc3ccnc4cc(-c5ccccn5)ccc34)cc2)cc1.Cl")
0
>>> experimental_value("NS(=O)(=O)c1cccc(-c2ccc3ncc(N4CCOCC4)nc3c2)c1")
0
>>> experimental_value("COc1ccc(Nc2ncc(C#N)c(Nc3ccccc3C(N)=O)n2)cc1N1CCN(C)CC1.Cl")
100
>>> experimental_value("CCc1nc(-c2cccc(C)c2)c(-c2ccnc(NCc3ccccc3)c2)s1")
8
>>> experimental_value("CC(C)(CN)c1nc(-c2ccc(Cl)c(O)c2)c(-c2ccncc2)[nH]1.O=C(O)C(F)(F)F")
0
>>> experimental_value("CCc1ccnc(/C=C/c2n[nH]c3cc(Sc4ccccc4C(=O)NC)ccc23)c1")
0
>>> experimental_value("Cl.Oc1cccc(Nc2ccnc3cc(-c4ccncc4)ccc23)c1")
0

----------
system: MAK; details: concentration: 1 μM, replicates: in singlicate; n = 1
measure: %Inh (%)

>>> experimental_value("Fc1ccc(-c2nn3c(OCC(F)(F)F)cccc3c2-c2ccncc2)cc1")
31
>>> experimental_value("Nc1nccc(-c2c(-c3ccc(F)cc3)ncn2C2CCN(CC(F)(F)F)CC2)n1")
29
>>> experimental_value("N#Cc1c(N2CCOCC2)sc(-c2ccn[nH]2)c1-c1ccc(Cl)cc1")
12
>>> experimental_value("COCCNC(=O)c1ccc(-c2cc(C(=O)NC3CC3)cc(F)c2C)cc1")
36
>>> experimental_value("Fc1ccc(-c2ncn(CCCN3CCOCC3)c2-c2cccnc2)cc1")
15
>>> experimental_value("CCCCCc1nc2c(N)ncnc2n1CCCCC")
0
>>> experimental_value("NCC(NC(=O)c1cc(-c2cn[nH]c2)c(-c2ccnc3[nH]ccc23)s1)c1ccccc1.O=C(O)C(F)(F)F.O=C(O)C(F)(F)F (stereo not shown)")
16

----------
test system: CAMK2B; settings: concentration: 1 μM, replicates: in singlicate; n = 1
// reported %Inh per item
measure: %Inh (%)

>>> experimental_value("CCc1ccnc(/C=C/c2n[nH]c3cc(Sc4ccccc4C(=O)NC)ccc23)c1")
0
>>> experimental_value("COc1cc2c(cc1OCCN1CCN(C)CC1)ncc1c3ccc(C#N)cc3[nH]c21")
70
>>> experimental_value("c1ccc(-c2n[nH]cc2-c2ccnc3ccccc23)nc1")
0
>>> experimental_value("COc1cc(Nc2nccc(N3CCC(NC(=O)c4cccc(NC(C)=O)c4)C3)n2)cc(OC)c1OC (centres unmarked)")
0
>>> experimental_value("COc1cc2ncn(-c3cc(OCc4sccc4Cl)c(C(N)=O)s3)c2cc1OC")
0
>>> experimental_value("O=c1cc(N2CCOCC2)nc2n(Cc3cccc4ccccc34)ccn12")
0
>>> experimental_value("O=C1Cc2cc(Nc3nc(NCc4cccc(S(=O)(=O)C(F)(F)F)c4)ncc3C(F)(F)F)ccc2N1")
0
>>> experimental_value("NS(=O)(=O)c1cccc(-c2ccc3ncc(N4CCOCC4)nc3c2)c1")
2
>>> experimental_value("Cn1cc(-c2ccc3c(c2)CCN3C(=O)Cc2ccccc2Cl)c2c(N)ncnc21")
0
>>> experimental_value("NCC(NC(=O)c1cc(-c2cn[nH]c2)c(-c2ccnc3[nH]ccc23)s1)c1ccccc1.O=C(O)C(F)(F)F.O=C(O)C(F)(F)F (centres unmarked)")
12
>>> experimental_value("Cl.Cl.Cl.Fc1ccc(-c2ncn(C3CCNCC3)c2-c2ccnc(Nc3ccccc3)n2)cc1")
0
